Protocol: Pharmacokinetics after repeated oral administration of 35 μg/kg of fluralaner in dogs after feeding
Assay type: in vivo, beagle dogs
Recorded conditions: beagle, dog, plasma, po, 35 μg/kg, 360 h; oral 35 μg/kg Days 0-3, dogs, n=6; read-out: fluralaner concentration levels, Minimum
Quantity measured: concentration at 360 h (ng/mL)
# value in ng/mL; strip the unit string

Field concentration at 360 h (entry Cc1cc(C2=NOC(c3cc(Cl)cc(Cl)c3)(C(F)(F)F)C2)ccc1C(=O)NCC(=O)NCC(F)(F)F (stereo not shown) ) reads 35.2

----------
Protocol: Pharmacokinetics after repeated oral administration of 35 μg/kg of fluralaner in dogs after feeding
Type: in vivo, beagle dogs
Recorded conditions: beagle, dog, plasma, 35 ug/kg; oral 35 μg/kg Days 0-3, dogs; read-out: Tmax, individual animal
Quantity measured: tmax (h)
# value in h; strip the unit string

Field tmax (entry Cc1cc(C2=NOC(c3cc(Cl)cc(Cl)c3)(C(F)(F)F)C2)ccc1C(=O)NCC(=O)NCC(F)(F)F (stereo not shown) ) reads 96

----------
Protocol: Pharmacokinetics after repeated oral administration of 250 μg/kg and 35 μg/kg of fluralaner in dogs after feeding
Type: in vivo, beagle dogs
Recorded conditions: beagle, dog, plasma, po, 144 h; oral 250/35/600 μg/kg regimen, dogs, n=6; read-out: fluralaner concentration levels, Mean
Quantity measured: concentration at 144 h (ng/mL)
# value in ng/mL; strip the unit string

Field concentration at 144 h (entry Cc1cc(C2=NOC(c3cc(Cl)cc(Cl)c3)(C(F)(F)F)C2)ccc1C(=O)NCC(=O)NCC(F)(F)F (stereo not shown) ) reads 492

----------
Protocol: Pharmacokinetics after repeated oral administration of 250 μg/kg and 35 μg/kg of fluralaner in dogs after feeding
Type: in vivo, beagle dogs
Recorded conditions: beagle, dog, plasma, po, 72 h; oral 250/35/600 μg/kg regimen, dogs, n=6; read-out: fluralaner concentration levels, Maximum
Quantity measured: concentration at 72 h (ng/mL)
# value in ng/mL; strip the unit string

Field concentration at 72 h (entry Cc1cc(C2=NOC(c3cc(Cl)cc(Cl)c3)(C(F)(F)F)C2)ccc1C(=O)NCC(=O)NCC(F)(F)F (stereo not shown) [fluralaner, Fluralaner] ) reads 469

----------
Protocol: Pharmacokinetics after repeated oral administration of 250 μg/kg and 35 μg/kg of fluralaner in dogs after feeding
Format: in vivo, beagle dogs
Recorded conditions: beagle, dog, plasma, po, 720 h; oral 250/35/600 μg/kg regimen, dogs, n=6; read-out: fluralaner concentration levels, Maximum
Quantity measured: concentration at 720 h (ng/mL)
# value in ng/mL; strip the unit string

Field concentration at 720 h (entry Cc1cc(C2=NOC(c3cc(Cl)cc(Cl)c3)(C(F)(F)F)C2)ccc1C(=O)NCC(=O)NCC(F)(F)F (stereo not shown) [fluralaner, Fluralaner] ) reads 300

----------
Protocol: Pharmacokinetics after repeated oral administration of 35 μg/kg of fluralaner in dogs after feeding
Assay type: in vivo, beagle dogs
Recorded conditions: beagle, dog, plasma, po, 35 μg/kg, 48 h; oral 35 μg/kg Days 0-3, dogs, n=6; read-out: fluralaner concentration levels, Median
Quantity measured: concentration at 48 h (ng/mL)
# value in ng/mL; strip the unit string

Field concentration at 48 h (entry Cc1cc(C2=NOC(c3cc(Cl)cc(Cl)c3)(C(F)(F)F)C2)ccc1C(=O)NCC(=O)NCC(F)(F)F (stereo not shown) ) reads 33.7

----------
Protocol: Pharmacokinetics after repeated oral administration of 35 μg/kg of fluralaner in dogs after feeding
Assay type: in vivo, beagle dogs
Recorded conditions: beagle, dog, plasma, po, 35 ug/kg, oral 35 μg/kg Days 0-3, dogs; read-out: t½, individual animal (converted)
Quantity measured: half-life (days)
# value in days; strip the unit string

Field half-life (entry Cc1cc(C2=NOC(c3cc(Cl)cc(Cl)c3)(C(F)(F)F)C2)ccc1C(=O)NCC(=O)NCC(F)(F)F (stereo not shown) [fluralaner, Fluralaner] ) reads 10.9

----------
Protocol: Pharmacokinetics after repeated oral administration of 250 μg/kg and 35 μg/kg of fluralaner in dogs after feeding
Type: in vivo, beagle dogs
Recorded conditions: beagle, dog, plasma, po, 216 h; oral 250/35/600 μg/kg regimen, dogs, n=6; read-out: fluralaner concentration levels, Median
Quantity measured: concentration at 216 h (ng/mL)
# value in ng/mL; strip the unit string

Field concentration at 216 h (entry Cc1cc(C2=NOC(c3cc(Cl)cc(Cl)c3)(C(F)(F)F)C2)ccc1C(=O)NCC(=O)NCC(F)(F)F (stereo not shown) ) reads 485

----------
Protocol: Pharmacokinetic profile of Bravecto spot-on after single topical administration on dogs
Recorded conditions: dog, in vivo, topical or ocular, 6250 ug/kg, Bravecto spot-on single topical 6250 μg/kg, dogs; read-out: maximum concentration (Cmax), range
Quantity measured: Cmax

Field Cmax (entry Cc1cc(C2=NOC(c3cc(Cl)cc(Cl)c3)(C(F)(F)F)C2)ccc1C(=O)NCC(=O)NCC(F)(F)F (stereo not shown) ) reads 161 to 353 ng/mL

----------
Protocol: Pharmacokinetics after repeated oral administration of 250 μg/kg and 35 μg/kg of fluralaner in dogs after feeding
Assay type: in vivo, beagle dogs
Recorded conditions: beagle, dog, plasma, po, 624 h; oral 250/35/600 μg/kg regimen, dogs, n=6; read-out: fluralaner concentration levels, Mean
Quantity measured: concentration at 624 h (ng/mL)
# value in ng/mL; strip the unit string

Field concentration at 624 h (entry Cc1cc(C2=NOC(c3cc(Cl)cc(Cl)c3)(C(F)(F)F)C2)ccc1C(=O)NCC(=O)NCC(F)(F)F (stereo not shown) [fluralaner, Fluralaner] ) reads 263

----------
Protocol: Pharmacokinetics after repeated oral administration of 35 μg/kg of fluralaner in dogs after feeding
Assay type: in vivo, beagle dogs
Recorded conditions: beagle, dog, plasma, po, 35 μg/kg, 360 h; oral 35 μg/kg Days 0-3, dogs, n=6; read-out: fluralaner concentration levels, Mean
Quantity measured: concentration at 360 h (µg/mL)
# value in µg/mL; strip the unit string

Field concentration at 360 h (entry Cc1cc(C2=NOC(c3cc(Cl)cc(Cl)c3)(C(F)(F)F)C2)ccc1C(=O)NCC(=O)NCC(F)(F)F (stereo not shown) [fluralaner, Fluralaner] ) reads 0.0396

----------
Protocol: Pharmacokinetics after repeated oral administration of 35 μg/kg of fluralaner in dogs after feeding
Type: in vivo, beagle dogs
Recorded conditions: beagle, dog, plasma, po, 35 ug/kg, oral 35 μg/kg Days 0-3, dogs, n=6; read-out: AUC 0-inf, GeoMean
Protocol: The first objective of the study was to obtain the pharmacokinetic parameters after repeated oral administration of 35 μg/kg of fluralaner in dogs, 30 to 35 minutes after feeding. […] On Days 0, 1, 2 and 3, all dogs assigned to group 2 received the Investigational Veterinary Product. […] The quantity of Investigational Veterinary Product and control product administered was calculated according to the dog's individual body weight measured on Day −1. […]
Quantity measured: AUC(0-inf) (ng·h/mL)
# value in ng·h/mL; strip the unit string

Field AUC(0-inf) (entry Cc1cc(C2=NOC(c3cc(Cl)cc(Cl)c3)(C(F)(F)F)C2)ccc1C(=O)NCC(=O)NCC(F)(F)F (stereo not shown) [fluralaner, Fluralaner] ) reads 27900

----------
Protocol: Pharmacokinetics after repeated oral administration of 35 μg/kg of fluralaner in dogs after feeding
Format: in vivo, beagle dogs
Recorded conditions: beagle, dog, plasma, po, 35 μg/kg, 672 h; oral 35 μg/kg Days 0-3, dogs; read-out: fluralaner concentration levels, individual animal
Quantity measured: concentration at 672 h (ng/mL)
# value in ng/mL; strip the unit string

Field concentration at 672 h (entry Cc1cc(C2=NOC(c3cc(Cl)cc(Cl)c3)(C(F)(F)F)C2)ccc1C(=O)NCC(=O)NCC(F)(F)F (stereo not shown) ) reads 16

----------
Protocol: Pharmacokinetics after repeated oral administration of 250 μg/kg and 35 μg/kg of fluralaner in dogs after feeding
Format: in vivo, beagle dogs
Recorded conditions: beagle, dog, plasma, po, 48 h; oral 250/35/600 μg/kg regimen, dogs, n=6; read-out: fluralaner concentration levels, Minimum
Procedure: The first objective is to obtain the pharmacokinetic parameters after repeated oral administration of […] and 35 μg/kg of fluralaner in dogs after feeding. […] On Days 0, 1, 2 and 3, all dogs assigned to group 2 received the Investigational Veterinary Product. […] The quantity of Investigational Veterinary Product and control product administered was calculated according to the dog's individual body weight measured on Day −1. […] Cmax the observed maximum concentration in plasma measured after dosing. […]
Quantity measured: concentration at 48 h (ng/mL)
# value in ng/mL; strip the unit string

Field concentration at 48 h (entry Cc1cc(C2=NOC(c3cc(Cl)cc(Cl)c3)(C(F)(F)F)C2)ccc1C(=O)NCC(=O)NCC(F)(F)F (stereo not shown) ) reads 245

----------
Protocol: Pharmacokinetics after repeated oral administration of 35 μg/kg of fluralaner in dogs after feeding
Assay type: in vivo, beagle dogs
Recorded conditions: beagle, dog, plasma, po, 35 μg/kg, 240 h; oral 35 μg/kg Days 0-3, dogs, n=6; read-out: fluralaner concentration levels, Median
Quantity measured: concentration at 240 h (ng/mL)
# value in ng/mL; strip the unit string

Field concentration at 240 h (entry Cc1cc(C2=NOC(c3cc(Cl)cc(Cl)c3)(C(F)(F)F)C2)ccc1C(=O)NCC(=O)NCC(F)(F)F (stereo not shown) [fluralaner, Fluralaner] ) reads 45.1
